pEC50 values by entry
biological target: TLR8 (Homo sapiens, UniProt Q9NR97); construct: lymphocytes, monocytes and dendritic cells that express TLR7, TLR8 and TLR9; endogenous in cells; experiment: TLR8 human PBMC cell-based assay, TLR8 agonist Compound A stimulation, cytokine (TNFa and IL12p40) readout; conditions: human PBMCs, Compound A 800 nM, 6 hours; Table 26; read-out: TLR-8 EC50
Sequence (Q9NR97 27-1041): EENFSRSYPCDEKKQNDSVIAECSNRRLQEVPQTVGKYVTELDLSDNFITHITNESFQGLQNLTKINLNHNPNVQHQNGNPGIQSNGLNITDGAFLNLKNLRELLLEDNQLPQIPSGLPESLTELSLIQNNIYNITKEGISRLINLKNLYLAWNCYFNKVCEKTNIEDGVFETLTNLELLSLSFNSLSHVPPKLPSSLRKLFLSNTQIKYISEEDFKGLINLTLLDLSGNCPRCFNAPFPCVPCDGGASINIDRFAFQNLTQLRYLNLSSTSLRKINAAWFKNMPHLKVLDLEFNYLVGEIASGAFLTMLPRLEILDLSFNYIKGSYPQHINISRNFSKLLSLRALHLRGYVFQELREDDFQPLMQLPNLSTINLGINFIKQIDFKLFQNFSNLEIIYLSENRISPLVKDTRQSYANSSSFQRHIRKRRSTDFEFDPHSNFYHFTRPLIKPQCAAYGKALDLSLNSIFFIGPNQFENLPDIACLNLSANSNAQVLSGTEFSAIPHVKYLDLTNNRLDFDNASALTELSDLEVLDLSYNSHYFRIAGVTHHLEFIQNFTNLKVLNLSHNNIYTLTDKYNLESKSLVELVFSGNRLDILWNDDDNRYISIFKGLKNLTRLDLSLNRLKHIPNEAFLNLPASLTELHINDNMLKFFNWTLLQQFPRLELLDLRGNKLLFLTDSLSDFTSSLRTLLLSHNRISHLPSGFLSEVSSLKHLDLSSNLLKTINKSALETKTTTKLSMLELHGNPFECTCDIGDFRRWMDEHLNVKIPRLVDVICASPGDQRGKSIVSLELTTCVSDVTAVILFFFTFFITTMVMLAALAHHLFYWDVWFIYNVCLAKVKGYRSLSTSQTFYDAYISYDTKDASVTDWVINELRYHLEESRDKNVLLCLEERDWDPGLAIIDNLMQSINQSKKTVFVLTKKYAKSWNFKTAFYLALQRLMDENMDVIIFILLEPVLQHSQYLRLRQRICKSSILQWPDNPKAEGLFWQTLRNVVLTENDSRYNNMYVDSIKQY
Just the number, please; pEC50 means minus log10 of the concentration in mol/L.

The examples below pair each entry with its known result.
Cc1cc(-c2[nH]c3cc(C4CCNCC4)ccc3c2C)cc(C)n1 [Example 48] = 6.24
CCc1c(-c2cc(OC)c3ncnn3c2)[nH]c2cc(-c3ccc(N4CCN(C(=O)C56CC(CN5)C6)CC4)nc3)ccc12 [Example 174] = 8.48
Cc1cc(-c2[nH]c3cc(-c4ccc(N5CCNCC5)nc4)ccc3c2C)cc(C)n1 [Example 1] = 6.11
Cc1c(-c2cc(C)c3ncnn3c2)[nH]c2cc(-c3nnc(N4CCNCC4)o3)ccc12 [Example 192] = 6.39

[ask] Provide the documented pEC50 with TLR8 (Homo sapiens, UniProt Q9NR97) as the system for Cc1cc(-c2[nH]c3cc(-c4ccc(N5CCN(CCO)CC5)nc4)ccc3c2C)cc(C)n1 [Example 37]
[reply] 6.20

----------
target: TLR7 (Homo sapiens, UniProt Q9NYK1); construct: lymphocytes, monocytes and dendritic cells that express TLR7, TLR8 and TLR9; endogenous in cells; host or cells: human PBMCs from healthy donors; test: Human PBMC cell-based assay, TLR7 agonist GS-986 stimulation, cytokine (IL-6 and IFNα) readout; conditions: human PBMCs, GS-986 400 nM, 6 hours; Table 26; read-out: TLR-7 EC50
Sequence (Q9NYK1 27-1049): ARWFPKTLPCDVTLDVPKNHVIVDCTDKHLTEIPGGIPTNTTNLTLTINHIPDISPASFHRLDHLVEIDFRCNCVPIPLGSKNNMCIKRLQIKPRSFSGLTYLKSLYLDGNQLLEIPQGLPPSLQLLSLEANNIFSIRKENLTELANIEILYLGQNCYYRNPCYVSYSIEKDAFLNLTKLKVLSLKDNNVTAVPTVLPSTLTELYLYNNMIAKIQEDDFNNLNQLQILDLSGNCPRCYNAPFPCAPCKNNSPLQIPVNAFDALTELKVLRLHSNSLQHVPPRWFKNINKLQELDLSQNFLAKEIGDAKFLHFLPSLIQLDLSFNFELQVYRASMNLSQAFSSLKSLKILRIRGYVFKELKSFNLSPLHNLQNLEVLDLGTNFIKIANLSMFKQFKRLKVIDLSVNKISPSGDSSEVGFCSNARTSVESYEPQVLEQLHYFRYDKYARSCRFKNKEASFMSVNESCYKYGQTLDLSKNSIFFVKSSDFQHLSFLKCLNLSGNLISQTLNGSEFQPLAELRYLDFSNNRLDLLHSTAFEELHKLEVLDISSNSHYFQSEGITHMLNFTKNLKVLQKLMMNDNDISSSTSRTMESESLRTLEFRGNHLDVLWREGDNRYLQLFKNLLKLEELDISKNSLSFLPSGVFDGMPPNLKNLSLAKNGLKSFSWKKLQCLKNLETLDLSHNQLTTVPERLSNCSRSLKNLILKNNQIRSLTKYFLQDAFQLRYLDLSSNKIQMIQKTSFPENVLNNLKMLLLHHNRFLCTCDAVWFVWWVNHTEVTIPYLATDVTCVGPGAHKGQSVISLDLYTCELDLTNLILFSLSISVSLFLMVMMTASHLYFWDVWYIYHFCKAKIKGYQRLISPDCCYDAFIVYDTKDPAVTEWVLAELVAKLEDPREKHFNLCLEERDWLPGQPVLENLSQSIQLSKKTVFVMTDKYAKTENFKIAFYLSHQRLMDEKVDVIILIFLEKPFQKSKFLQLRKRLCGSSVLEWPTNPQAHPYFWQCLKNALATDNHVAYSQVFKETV
quantityMeasured: EC50

Cc1cc(-c2[nH]c3cc(-c4ccc(N5CCN(C(=O)CN)CC5)nc4)ccc3c2C)cc(C)n1 [Example 137] = 45.9 nM
Cc1cc(-c2[nH]c3cc(-c4ccc(N5CCCNCC5)nc4)ccc3c2C)cc(C)n1 [Example 103] = 35.1 nM
Cc1cc(-c2[nH]c3cc(-c4ccc(N5CCN(C(=O)[C@@H]6CCCN6)CC5)nc4)ccc3c2C)cc(C)n1 [Example 135] = 73.9 nM

Proceed to the following item.
[ask] Look up EC50 for this compound: Cc1c(-c2cc(C)c3ncnn3c2)[nH]c2cc(-c3nnc(C4CCNCC4)o3)ccc12 [Example 191]
[reply] 49.1 nM

----------
molecular target: TLR7 (Homo sapiens); construct: lymphocytes, monocytes and dendritic cells that express TLR7, TLR8 and TLR9; endogenous in cells; host or cells: human PBMCs from healthy donors; test: Human PBMC cell-based assay, TLR7 agonist GS-986 stimulation, cytokine (IL-6 and IFNα) readout; details: human PBMCs, GS-986 400 nM, 6 hours; Table 26; read-out: TLR-7 EC50
quantityMeasured: EC50 (nM)
Your answer should be a plain number; it is taken to be in nM.

Cc1cc(-c2[nH]c3cc(-c4ccc(C(=O)N5CCN6CCC5C6)cc4)ccc3c2C)cc(C)n1 (stereo not shown) = 146

Proceed to the following item.
[ask] Look up EC50 for this molecule: CNCC(=O)N1CCN(c2ccc(-c3ccc4c(C)c(-c5cc(C)nc(C)c5)[nH]c4c3)cn2)CC1
[reply] 37.8

----------
pEC50 values by entry
target: TLR9 (Homo sapiens); construct: lymphocytes, monocytes and dendritic cells that express TLR7, TLR8 and TLR9; endogenous in cells; host or cells: human PBMCs from healthy donors; experiment: Human PBMC cell-based assay, TLR9 agonist ODN-2216 stimulation, cytokine (IL-6 and IFNα) readout; conditions: human PBMCs, ODN-2216 3 μM, 6 hours; Table 26; read-out: TLR-9 EC50
Sequence (Q9NR96 26-1032): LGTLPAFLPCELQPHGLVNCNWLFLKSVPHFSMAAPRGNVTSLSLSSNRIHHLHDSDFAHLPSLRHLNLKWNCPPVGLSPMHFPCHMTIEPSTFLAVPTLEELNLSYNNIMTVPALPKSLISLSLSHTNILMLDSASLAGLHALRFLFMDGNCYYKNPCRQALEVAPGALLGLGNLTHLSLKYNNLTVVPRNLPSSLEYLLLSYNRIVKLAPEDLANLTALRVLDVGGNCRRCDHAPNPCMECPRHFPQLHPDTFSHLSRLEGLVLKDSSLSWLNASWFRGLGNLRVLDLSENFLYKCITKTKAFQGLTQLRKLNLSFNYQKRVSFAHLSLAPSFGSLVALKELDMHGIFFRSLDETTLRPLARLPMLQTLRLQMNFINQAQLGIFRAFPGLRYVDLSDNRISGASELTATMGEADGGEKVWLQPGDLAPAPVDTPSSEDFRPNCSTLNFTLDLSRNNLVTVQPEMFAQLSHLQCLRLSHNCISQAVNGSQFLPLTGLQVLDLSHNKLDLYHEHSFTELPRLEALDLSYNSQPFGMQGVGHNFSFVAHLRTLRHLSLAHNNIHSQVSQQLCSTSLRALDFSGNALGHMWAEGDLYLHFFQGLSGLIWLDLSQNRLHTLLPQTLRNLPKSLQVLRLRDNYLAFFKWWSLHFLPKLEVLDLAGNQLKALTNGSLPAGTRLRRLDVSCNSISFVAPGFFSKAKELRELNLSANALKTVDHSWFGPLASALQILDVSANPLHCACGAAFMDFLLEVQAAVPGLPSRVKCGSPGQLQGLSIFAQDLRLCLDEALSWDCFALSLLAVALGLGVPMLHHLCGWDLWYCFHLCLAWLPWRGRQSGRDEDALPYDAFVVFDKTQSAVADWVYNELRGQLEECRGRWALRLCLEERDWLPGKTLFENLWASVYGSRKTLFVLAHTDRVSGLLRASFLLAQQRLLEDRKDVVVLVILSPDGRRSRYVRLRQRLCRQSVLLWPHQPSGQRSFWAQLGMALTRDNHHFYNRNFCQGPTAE
Just the number, please; pEC50 means minus log10 of the concentration in mol/L.

The examples below pair each entry with its known result.
Cc1cc(-c2[nH]c3cc(-c4ccc(N5CCN(C(=O)[C@@H]6CCCN6C)CC5)nc4)ccc3c2C)cc(C)n1 = 7.49
Cc1cc(-c2[nH]c3cc(-c4ccc(N5CC[C@@H](NCCO)C5)nc4)ccc3c2C)cc(C)n1 = 7.74
Cc1cc(-c2[nH]c3cc(-c4ccc(N5CCN(CC(=O)N(C)C)CC5)nc4)ccc3c2C)cc(C)n1 = 7.17
CCc1c(-c2cc(C)c3ncnn3c2)[nH]c2cc(-c3ccc(N4CCNCC4)nc3)ccc12 = 6.41
Cc1cc(-c2[nH]c3cc(-c4ccc5ncn(C6CCNCC6)c5c4)ccc3c2C)cc(C)n1 = 6.28
COc1ccc(-c2[nH]c3cc(-c4ccc(N5CCNCC5)nc4)ccc3c2C)cc1OC = 6.12

[ask] Look up pEC50 for this compound: Cc1cc(-c2[nH]c3cc(-c4ccc(N5CCN6CC(F)(F)C[C@H]6C5)nc4)ccc3c2C)cc(C)n1
[reply] 6.14

Numbers sourced from patent US20250002471A1.
